Target: BSA-NSP-DMAE (Bos taurus)
Construct: NSP-DMAE acridinium ester (chemical label attached through an amine-reactive NHS ester, about 1.4 per molecule)
Sequence (P02769 25-607): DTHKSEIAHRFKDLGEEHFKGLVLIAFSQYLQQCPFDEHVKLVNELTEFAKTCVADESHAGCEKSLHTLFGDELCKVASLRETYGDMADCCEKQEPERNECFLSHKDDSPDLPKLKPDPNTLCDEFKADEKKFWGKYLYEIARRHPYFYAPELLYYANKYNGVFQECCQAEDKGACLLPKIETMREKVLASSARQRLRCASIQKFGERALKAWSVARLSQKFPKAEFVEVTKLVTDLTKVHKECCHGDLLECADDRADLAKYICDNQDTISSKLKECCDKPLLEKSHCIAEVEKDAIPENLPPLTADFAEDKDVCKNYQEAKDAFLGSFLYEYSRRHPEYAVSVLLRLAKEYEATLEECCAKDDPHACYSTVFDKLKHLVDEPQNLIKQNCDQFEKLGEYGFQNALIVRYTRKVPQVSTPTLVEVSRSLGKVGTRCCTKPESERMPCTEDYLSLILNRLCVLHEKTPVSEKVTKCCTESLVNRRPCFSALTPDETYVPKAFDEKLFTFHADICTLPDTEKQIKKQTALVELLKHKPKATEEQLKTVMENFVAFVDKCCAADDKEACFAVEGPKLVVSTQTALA
Assay: Zwitterion label incorporation into acridinium ester labeled BSA, measured by MALDI-TOF mass spectroscopy
Design: species or system bovine
Conditions: input 10 equivalents
PROPERTY_NAME: # of Zwitterion-Containing Compounds Incorporated by Conjugate
Write no unit; give the number alone.

Q: Tell me the measured # of Zwitterion-Containing Compounds Incorporated by Conjugate of C[N+](C)(CCCC(=O)Oc1c(F)c(F)c(F)c(F)c1F)CCCS(=O)(=O)[O-] , please.
Ans: 5

Q: Check C[N+](C)(CCCCS(=O)(=O)[O-])CCCC(=O)Oc1c(F)c(F)c(F)c(F)c1F too.
Ans: 3.3

Q: Check CCCOP(=O)([O-])OCC[N+](C)(C)CCCC(=O)Oc1c(F)c(F)c(F)c(F)c1F too.
Ans: 3.4

Q: Check C[N+](C)(CCCC(=O)Oc1c(F)c(F)c(F)c(F)c1F)CCS(=O)(=O)[O-] too.
Ans: 5

Data origin, for the record: patent US10710962B2
